- Test system: M14
- PROTOCOL_TEXT: NCI tumour cell line growth inhibition, 48 h
Activity calls are given as the source filed them. Rule as the data show it: active = GI50 up to about 1.1 µM and inactive = higher.
Below is a list of entries, each paired with its recorded GI50 value.
READOUT: GI50

[[record]]
compound = "Oc1nc2ccccc2c2oc3ccccc3c12"
result = "> 100 µM (inactive)"

[[record]]
compound = "N#C[C@H]1C(=O)C(c2nc3ccccc3[nH]2)S[C@H]1c1ccccc1 (stereo partly specified)"
result = "33.3 µM (inactive)"

[[record]]
compound = "CC(C)OP(=S)(NC(=S)c1ccccc1)OC(C)C"
result = "> 100 µM (inactive)"

[[record]]
compound = "C=CC(C)(C)NC(C(=O)N1CCC[C@H]1c1nc(-c2nc(C(=O)OCC=C(C)C)c(C)o2)c(C)o1)C(C)C (stereo partly specified)"
result = "> 62.2 µM (inactive)"

[[record]]
compound = "NC(=S)Nc1c(S(N)(=O)=O)cc(S(N)(=O)=O)c(Cl)c1Cl"
result = "> 100 µM (inactive)"

[[record]]
compound = "NS(=O)(=O)c1ccc(NC(=O)c2ccc3nc4ccccc4c(Nc4ccc(S(N)(=O)=O)cc4)c3c2)cc1"
result = "> 100 µM (inactive)"

[[record]]
compound = "O=C1[C@@H]2C(c3ccccc3F)=NO[C@@H]2C(=O)N1c1ccc(Cc2ccc(N3C(=O)[C@H]4C(c5ccccc5F)=NO[C@H]4C3=O)cc2)cc1"
result = "> 100 µM (inactive)"

[[record]]
compound = "CCCCSC1=N/C(=C\\c2ccco2)C(Cl)=N1"
result = "> 100 µM (inactive)"

[[record]]
compound = "CCCCCCCCCCCCCP(=O)(O)OCC"
result = "> 100 µM (inactive)"

[[record]]
compound = "CCOC(=O)CCn1ncc(Cl)c(Cl)c1=O"
result = "4.21 µM (inactive)"

[[record]]
compound = "CCOC(=O)Cc1cnc(NC(NC(=O)CC)(C(F)(F)F)C(F)(F)F)s1"
result = "> 100 µM (inactive)"


* * *

- Tested on: OVCAR-4
- PROTOCOL_TEXT: NCI tumour cell line growth inhibition, 48 h
Activity calls are given as the source filed them. No stated cut-off is given here; in the data, active = GI50 up to about 1.1 µM and inactive = higher. Positions of bridges follow the written chain, without caps; N, C: chain ends. Where a SMILES comes first, the peptide text is derived from it. Non-standard residues stand in square brackets, D forms with d. Residues, ends and D or L forms follow the SMILES beside them. The star is where a group is joined. ξ: configuration not given here. *: point of attachment. X28 = O=C(/C=C/C=C/C=C/C=C/C=C/C(=O)*)NC1=C(O)CCC1=O; Pro(4R-Me) = C[C@H]1CN[C@H](C(=O)O)C1; NMeA = CN[C@@H](C)C(=O)O; ξF = NC(Cc1ccccc1)C(=O)O; Cbz = O=C(OCc1ccccc1)*; Boc = CC(C)(C)OC(=O)*; ξA = CC(N)C(=O)O; tBu = CC(C)(C)*
Below is a list of entries, each paired with its recorded GI50 value.
READOUT: GI50

[[record]]
molecule = "OC1=CN=C(c2ccccc2)Oc2ccccc21"
readout = "GI50"
result = "47.6 µM (inactive)"

[[record]]
molecule = "COP(=O)(OC)C1=c2c(C)noc2=C2C=COC2C1=O (stereo unspecified)"
readout = "GI50"
result = "> 100 µM (inactive)"

[[record]]
molecule = "Sc1nnc(-c2ccnc(-c3nnc(S)[nH]3)c2)[nH]1"
readout = "GI50"
result = "> 100 µM (inactive)"

[[record]]
molecule = "COC(=O)CCC(=O)NC1=C(NCc2ccccc2)C(=O)c2ccccc2C1=O"
readout = "GI50"
result = "18.5 µM (inactive)"

[[record]]
molecule = "CCOC(=O)/C(=C\\n1c(=O)sc2ccccc21)C(=O)c1ccccc1"
readout = "GI50"
result = "> 100 µM (inactive)"

[[record]]
molecule = "O=C1CSC(=S)N1/N=C/c1ccc(Cl)c([N+](=O)[O-])c1"
readout = "GI50"
result = "22.5 µM (inactive)"

[[record]]
molecule = "CC1(C)COCN1COC1CCCCC1"
readout = "GI50"
result = "> 100 µM (inactive)"

[[record]]
molecule = "C=CC(C)(C)NC(C(=O)N1CCC[C@H]1c1nc(-c2nc(C(=O)OCC=C(C)C)c(C)o2)c(C)o1)C(C)C (stereo partly specified)"
readout = "GI50"
result = "33.3 µM (inactive)"

[[record]]
molecule = "CC(OC(C)(C)C)C(NC(=O)C(N)CCCCNC(=O)OC(C)(C)C)C(=O)NC(Cc1ccccc1)C(=O)O (stereo unspecified) (H-Lys(Boc)-Thr(tBu)-Phe-OH; configuration not given here)"
readout = "GI50"
result = "> 100 µM (inactive)"

[[record]]
molecule = "CC1NC(=O)[C@H](C)N(C)C(=O)[C@@H]2CCCN2C(=O)[C@@H](NC(=O)C(Cc2ccccc2)NC(=O)/C=C/C=C/C=C/C=C/C=C/C(=O)NC2=C(O)CCC2=O)COC(=O)[C@@H]2C[C@@H](C)CN2C1=O (stereo partly drawn) (X28-[ξF]SP[NMeA][ξA][Pro(4R-Me)]; ester 2-C)"
readout = "GI50"
result = "> 100 µM (inactive)"

[[record]]
molecule = "CN/C(=N\\N)NS(=O)(=O)c1cc(C)c(Cl)cc1S"
readout = "GI50"
result = "> 100 µM (inactive)"

[[record]]
molecule = "O=C(Nc1ccn(CCI)c(=O)n1)c1ccccc1"
readout = "GI50"
result = "> 100 µM (inactive)"

[[record]]
molecule = "O=C(Nc1ccc(Cl)cc1)c1cc2cc(/N=N/c3ccccc3Cl)ccc2oc1=O"
readout = "GI50"
result = "22 µM (inactive)"

[[record]]
molecule = "CC(CN1CC(=O)NC(=O)C1)N1CC(=O)NC(=O)C1 (stereo unspecified)"
readout = "GI50"
result = "283 µM (inactive)"

[[record]]
molecule = "CCOc1cc2c(cc1O)/C(=N\\O)C[C@@H]1[C@@H]2CC[C@]2(C)[C@@H](O)CC[C@@H]12"
readout = "GI50"
result = "6.34 µM (inactive)"

[[record]]
molecule = "CC1=C(C(=O)OCCO[N+](=O)[O-])C(c2cccc([N+](=O)[O-])c2)C(C(=O)OC(C)C)=C(C)N1 (stereo unspecified)"
readout = "GI50"
result = "3.76 µM (inactive)"

[[record]]
molecule = "CCOC(=O)CCC(NC(=O)C(CC(=O)OC)NC(=O)OCc1ccccc1)C(=O)NC(CC(=O)OC)C(=O)NC(CCC(=O)OCC)C(=O)NC(CC(=O)OC)C(=O)NC(CCC(=O)OCC)C(=O)NC(CC(=O)OCC)C(=O)OCC (stereo unspecified) (Cbz-D(OMe)E(OEt)D(OMe)E(OEt)D(OMe)E(OEt)D(OEt)-OEt; configuration not given here)"
readout = "GI50"
result = "> 100 µM (inactive)"

[[record]]
molecule = "COc1ccc(CNC2=N/C(=C\\c3ccccc3Cl)C(=O)N2C)cc1"
readout = "GI50"
result = "23.9 µM (inactive)"

[[record]]
molecule = "COc1nc2sc3c(c2c(=O)n1CCCSSCCCn1c(OC)nc2sc4c(c2c1=O)CCCC4)CCCC3"
readout = "GI50"
result = "> 100 µM (inactive)"

[[record]]
molecule = "CC1(C)C[C@H]2[C@H](O)C(CO)=C3C(=O)[C@@H](O)[C@]3(C)[C@H]2C1"
readout = "GI50"
result = "> 100 µM (inactive)"

[[record]]
molecule = "COC(=O)CSc1ccccc1"
readout = "GI50"
result = "> 100 µM (inactive)"

[[record]]
molecule = "Cc1ccc(NCc2nnc3c(-c4ccccc4)nc4ccccc4n23)cc1"
readout = "GI50"
result = "28.2 µM (inactive)"

[[record]]
molecule = "CC(=O)O[C@H]1[C@H](OC(C)=O)[C@@H](CN=[N+]=[N-])OCO[C@@H]1CN=[N+]=[N-]"
readout = "GI50"
result = "> 100 µM (inactive)"

[[record]]
molecule = "O=C1/C(=C/c2ccc(O)c(CN3CCCCC3)c2)CCC/C1=C\\c1ccc(O)c(CN2CCCCC2)c1"
readout = "GI50"
result = "6.81 µM (inactive)"

[[record]]
molecule = "Nc1ccn([C@@H]2C[C@H](CO)[C@@H](O)[C@H]2O)c(=O)n1"
readout = "GI50"
result = "> 57.7 µM (inactive)"

[[record]]
molecule = "COc1ccc(/C=C/C(=O)c2cc(OC)cc(OC)c2)cc1"
readout = "GI50"
result = "3.45 µM (inactive)"

[[record]]
molecule = "O=C1Nc2ccccc2N/C1=C\\C(=O)C(F)F"
readout = "GI50"
result = "> 100 µM (inactive)"

[[record]]
molecule = "C=C1CCCCCCCCCCC1[S+]([O-])c1ccccc1 (stereo unspecified)"
readout = "GI50"
result = "54.5 µM (inactive)"

[[record]]
molecule = "C/C=C1\\CC(C(=O)OCC)CCCCCCCCCCC1=O (stereo unspecified)"
readout = "GI50"
result = "55.5 µM (inactive)"

[[record]]
molecule = "CO/N=[N+](\\[O-])NC(C)C"
readout = "GI50"
result = "> 100 µM (inactive)"

[[record]]
molecule = "C=C=C(CC)C(C(=O)OC)N(CC)CC (stereo unspecified)"
readout = "GI50"
result = "> 100 µM (inactive)"

